rel. IA (relative intrinsic activity), cAMP production, HEK-rCRFR1 cells values by entry
- System Under Test: T1, rat CRF receptor, type 1 (rCRFR1) (rat, UniProt P35353 24-415)
- T1 sequence (looked up): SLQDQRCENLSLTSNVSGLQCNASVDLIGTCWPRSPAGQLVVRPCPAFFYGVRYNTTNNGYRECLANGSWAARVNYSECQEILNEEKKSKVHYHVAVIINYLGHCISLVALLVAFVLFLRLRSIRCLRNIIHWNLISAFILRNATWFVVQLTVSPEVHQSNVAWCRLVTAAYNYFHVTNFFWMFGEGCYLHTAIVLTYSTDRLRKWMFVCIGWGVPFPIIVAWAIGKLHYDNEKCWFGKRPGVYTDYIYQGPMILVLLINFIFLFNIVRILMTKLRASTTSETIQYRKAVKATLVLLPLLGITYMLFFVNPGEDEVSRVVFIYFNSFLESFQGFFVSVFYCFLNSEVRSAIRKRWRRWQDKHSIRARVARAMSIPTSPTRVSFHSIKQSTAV
- Run Description: cell-based or functional assay
Non-standard residues stand in square brackets, D forms with d. No end group written: not given here. *: point of attachment. ATB = 4-(1-azi-2,2,2-trifluoroethyl)benzoyl, O=C(c1ccc(C2(C(F)(F)F)N=N2)cc1)*

Binder	Observed Value
LELLRKMIEIEKQEKEKQQAANNRLLLDTI (not fully specified (C-terminus), also called compound 14) [Svg(11-40)]	0.14 relative, oCRF = 1.00
{ATB}-HLLRKMIEIEKQEKEKQQAANNRLLLDTI (ends and bridges not checked, also called compound 17) [ATB-[His^12]Svg(12-40)]	0.15 relative, oCRF = 1.00
[dL]ELLRKMIEIEKQEKEKQQAANNRLLLDTI (not fully specified (C-terminus), also called compound 13) [[DLeu^11]Svg(11-40)]	0.22 relative, oCRF = 1.00

Request the reported rel. IA (relative intrinsic activity), cAMP production, HEK-rCRFR1 cells associated with YELLRKMIEIEKQEKEKQQAANNRLLLDTI (ends and bridges not checked, also called compound 19) [[Tyr^11]Svg(11-40)]
0.09 relative, oCRF = 1.00

Request the reported rel. IA (relative intrinsic activity), cAMP production, HEK-rCRFR1 cells associated with SQEPPISLDLTFHLLREVLEMTKADQLAQQAHSNRKLLDIA (ends and bridges not checked, Synthetic peptide (Fmoc chemistry on TentaGel S RAM resin); also called compound 1) [ovine corticotropin-releasing factor (oCRF)]
1 relative, oCRF = 1.00

Request the reported rel. IA (relative intrinsic activity), cAMP production, HEK-rCRFR1 cells associated with YLLRKMIEIEKQEKEKQQAANNRLLLDTI (ends and bridges not checked, also called compound 20) [[Tyr^12]Svg(12-40)]
0.06 relative, oCRF = 1.00

Request the reported rel. IA (relative intrinsic activity), cAMP production, HEK-rCRFR1 cells associated with YHLLRKMIEIEKQEKEKQQAANNRLLLDTI (ends and bridges not checked, also called compound 18) [[Tyr^11, His^12]Svg(11-40)]
0.03 relative, oCRF = 1.00

Request the reported rel. IA (relative intrinsic activity), cAMP production, HEK-rCRFR1 cells associated with [dF]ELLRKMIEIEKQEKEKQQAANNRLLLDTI (not fully specified (C-terminus), also called compound 12) [[DPhe^11]Svg(11-40)]
0.07 relative, oCRF = 1.00
